Test: Apparent permeability from basolateral to apical side in MDR-MDCK cells overexpressing human p-glycoprotein at 5 uM after 120 mins
Assay type: ADME, cell-based
Settings: MDCK-MDR1
Could you label it MET if measured Papp B→A at 2 h, 5 µM is 5 ×10⁻⁶ cm/s or higher, and NOT MET otherwise?

Answered examples (2):
CHEMICAL_SMILES	ASSIGNED_CLASS
CC(=O)O[C@@]12CO[C@@H]1C[C@H](O)[C@@]1(C)C(=O)[C@H](OC(=O)N(C)[C@H](C)[C@H](O)c3ccccc3)C3=C(C)[C@@H](OC(=O)[C@H](O)[C@@H](NC(=O)c4ccccc4)c4ccccc4)C[C@@](O)([C@@H](OC(=O)c4ccccc4)[C@H]21)C3(C)C	MET
CC(=O)O[C@@]12CO[C@@H]1C[C@H](O)[C@@]1(C)C(=O)[C@H](OC(=O)N[C@@H](C)C(=O)O)C3=C(C)[C@@H](OC(=O)[C@H](O)[C@@H](NC(=O)c4ccccc4)c4ccccc4)C[C@@](O)([C@@H](OC(=O)c4ccccc4)[C@H]21)C3(C)C	NOT MET

Say whether "CC(=O)O[C@@]12CO[C@@H]1C[C@H](O)[C@@]1(C)C(=O)[C@H](OC(=O)NCCC(=O)O)C3=C(C)[C@@H](OC(=O)[C@H](O)[C@@H](NC(=O)c4ccccc4)c4ccccc4)C[C@@](O)([C@@H](OC(=O)c4ccccc4)[C@H]21)C3(C)C" shows Papp B→A at 2 h, 5 µM of 5 ×10⁻⁶ cm/s or more.
NOT MET
